- assayed_system: BRD4 (BD1+BD2) bromodomain (Homo sapiens (Human), UniProt O60885)
- assay_method_text: BRD4 binding inhibition (AlphaScreen, GST-BRD4 vs tetraacetylated histone H4 peptide)
- experimental_context: GST-BRD4 (BD1+BD2) vs biotinylated acetyl-histone H4 peptide, AlphaScreen; read-out: BRD4 IC50
observable: IC50 (nM)
Write it as a number; the unit nM goes unstated.

Worked cases, IC50 given:
{"structure_smiles_string": "Cc1nnc2c(NCCCCNC(=O)[C@@H](F)C(C)C)nc3cc(N4C[C@@H](C)O[C@@H](C)C4)ccc3n12", "experimental_result": 34}
{"structure_smiles_string": "COc1cc2nc(NCCCCC(=O)NCc3ccco3)c3nnc(C)n3c2cc1OC", "experimental_result": 18}
{"structure_smiles_string": "Cc1nnc2c(NCCCCNC(=O)CCC(C)C)nc3cc(-c4nc5ccccc5n4C)ccc3n12", "experimental_result": 2}
{"structure_smiles_string": "Cc1nnc2c(NCCCCNC(=O)OC(C)(C)C)nc3cc(N4C[C@@H](C)O[C@@H](C)C4)ccc3n12", "experimental_result": 29}
{"structure_smiles_string": "COc1ccc2c(c1)nc(NCCCCNC(=O)[C@@H](F)C(C)C)c1nnc(C)n12", "experimental_result": 30}

What value of measured IC50 is listed for "Cc1nnc2c(NCCCCNC(=O)CC(C)C)nc3cc(N4CCc5sccc5C4)ccc3n12" ? 15

What value of measured IC50 is listed for "COc1ccc2nc(NCCCCNC(=O)C(C)(C)C)c3nnc(C)n3c2c1" ? 42
